This collection of values is drawn from the supplement of paper PMC9170038.

Reported apparent KD of K4 kissing-loop reporter values are given for each entry in this list.
Test system: K4 kissing-loop RNA reporter;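 also: bound reporter read as fluorescence of individual clusters on recovered sequencing chips by microscopy, with normalized cluster intensities fitted with a binding model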
Test: apparent KD of K4 kissing-loop reporter; higher = weaker reporter binding
Conditions: Eterna round: R107; input ligand: FMN 200 uM
valueKind: apparent KD of K4 kissing-loop reporter (nM)

[[record]]
sequencedata = "UCCUACGAGGUAACGUGGAUAUCUCGUUGCAAGGAUAUCUGGAAACAGAGAAGGUGCUACAUUAUCGGCAGUGAUGUUGCUGACC"
experimentalresult = 687

[[record]]
sequencedata = "AACUGUCAAGGCCAACAUUACUGAGGUGAUACCAGCAUCGAAAGAUGCCCUUGGCAGCACCAACUUGCAGUGAUGUUGCAAGUAA [BrourdMod 13 - Jieux - Exclusion - Theophylline A]"
experimentalresult = 231

[[record]]
sequencedata = "GCUAUGGUAGGAAGGAGCGCUUACUCGUUAAUAAGAGUGAUGUUCGAUAACGAGUAUUUAUAGCAGGUAGGUCGCCUACUAUAGC [Arginine B K4 4]"
experimentalresult = 207


----------
Test system: MS2 coat protein
Experiment: apparent KD of MS2 coat protein; higher = weaker reporter binding
Conditions: Eterna round: R107; input ligand: arginine 13.2 mM
valueKind: apparent KD of MS2 coat protein (nM)

[[record]]
sequencedata = "CCUGCGUUUCUUUUCUUUCGCAGGAAUGAUACCAGUAGGGAAACCUACCCUUGGCAGCAUGGGUAACAUGAGGAUCACCCAUGUU [SSThA NP+V+V2 #5 Same Structure]"
testtarget = "MS2 coat protein"
valuekind = "apparent KD of MS2 coat protein"
experimentalresult = 93.2

[[record]]
sequencedata = "CCGGCAUGUCGAAGGAGCGUCACAUGAGGAUCACCCAUGUACAUGAGGAUCACCCAUGUGUGACAGGUAGGUCGCGGCGGCCAGG [Exclusion Arginine B GF7]"
testtarget = "MS2 coat protein"
valuekind = "apparent KD of MS2 coat protein"
experimentalresult = 108

[[record]]
sequencedata = "GACCGAUUAUAGUGCGAUUCUCUUGUGGAAGGAGCGCAGAGGACUGCAGGUAGGUCGCCACAUGAGGAUCACCCAUGUCAGGAUA [Esxebiat]"
testtarget = "MS2 coat protein"
valuekind = "apparent KD of MS2 coat protein"
experimentalresult = 65.6

[[record]]
sequencedata = "UGUUAUGUGGGAAGGAGCGCAUACUUCACAUGAGGAUCACCCAUGUCAAGACGUGAGUCAGUGCAGGUAGGUCGCCUAGUUAAGA [Same State - Arginine B (Freestyle 17)]"
testtarget = "MS2 coat protein"
valuekind = "apparent KD of MS2 coat protein"
experimentalresult = 36

[[record]]
sequencedata = "AACAUGGGAUUAAAAUAAAUAAUAACUGAUACCAGACUAUAUAAUGUCCCUUGGCAGCAGAUACAUGAGGAUCACCCAUGUAUUA [JR_Nu_ExcTheophyA_Sub023]"
testtarget = "MS2 coat protein"
valuekind = "apparent KD of MS2 coat protein"
experimentalresult = 12.2

[[record]]
sequencedata = "ACGACGCAUAGUGAUACCAGUAGAACAUGAGGAUCACCCAUGUCUGUGGCGCUCCGCCUCUGCCCUUGGCAGCACUAUGCGUCAG [SSTheo B #10]"
testtarget = "MS2 coat protein"
valuekind = "apparent KD of MS2 coat protein"
experimentalresult = 11.9

[[record]]
sequencedata = "CCUAUGCAGUCGGCCGCCACUGAAAACAGCCUCAAAAUAAAUAUAACAUGAGGAUCACCCAUGUACAGGACCGGGACUGUAUAGG [Ex Tryptophan B 11]"
testtarget = "MS2 coat protein"
valuekind = "apparent KD of MS2 coat protein"
experimentalresult = 81

[[record]]
sequencedata = "AAAGUUGAUGAGUUGUGUUUGUGUUCGGAAGGAGCGGGAAUUAUCUCAGGUAGGUCGCCGAACAUGAGGAUCACCCAUGUAUAAA [XArg-A 18 NuV2 original #dotplot2>1]"
testtarget = "MS2 coat protein"
valuekind = "apparent KD of MS2 coat protein"
experimentalresult = 40.2

[[record]]
sequencedata = "UCGCUCUGGGUGAAUCCCAGAGAUAUGGAAGGAGCGGACGAAAGUCCAGGUAGGUCGCCAUCGAACAUGAGGAUCACCCAUGUAC [Same State - Arginine A (Freestyle 27)]"
testtarget = "MS2 coat protein"
valuekind = "apparent KD of MS2 coat protein"
experimentalresult = 62.1

[[record]]
sequencedata = "ACUAGUUGUGCAGAUACCAGACAUGAGGAUCACCCAUGUUUGGGUUGUUCGCAACUUCCUGUCCCUUGGCAGCUGUACAUCUAGA [Omei Theo B Exc v5]"
testtarget = "MS2 coat protein"
valuekind = "apparent KD of MS2 coat protein"
experimentalresult = 18.9

